test system: Neonatal Rat Ventricular Myocytes (NRVMs); assay: Myocyte proliferation assay (EdU assay) in neonatal rat ventricular myocytes; assay type: cell-based; conditions: compound 3 uM, growth relative to blank myocyte growth without compound added
readout-name: Avg 3 uM (average myocyte proliferation)

Nc1ccc(NC2=N/C(=C\c3ccc4ncsc4c3)C(=O)N2)cc1 : ** (10%-50%)
O=C1NC(Nc2ccc3nccnc3c2)=N/C1=C\c1ccc2ncsc2c1 : ** (10%-50%)

---

tested on: Neonatal Rat Ventricular Myocytes (NRVMs); experiment: Myocyte proliferation assay (EdU assay) in neonatal rat ventricular myocytes; type: cell-based; settings: compound 3 uM, growth relative to blank myocyte growth without compound added
readout-name: Avg 3 uM (average myocyte proliferation)

CN(C1=N/C(=C\c2ccc3ncsc3c2)C(=O)N1)c1ccccc1 [Example 7] : ** (10%-50%)
CC(=O)N(C1=N/C(=C\c2ccc3c(c2)OCO3)C(=O)N1)c1ccccc1 [Example 5] : ** (10%-50%)
